The origin of these recorded values is patent US20200164085A1.

Target: T1, human CD74 (human, UniProt P04233 1-296)
T1 sequence (looked up): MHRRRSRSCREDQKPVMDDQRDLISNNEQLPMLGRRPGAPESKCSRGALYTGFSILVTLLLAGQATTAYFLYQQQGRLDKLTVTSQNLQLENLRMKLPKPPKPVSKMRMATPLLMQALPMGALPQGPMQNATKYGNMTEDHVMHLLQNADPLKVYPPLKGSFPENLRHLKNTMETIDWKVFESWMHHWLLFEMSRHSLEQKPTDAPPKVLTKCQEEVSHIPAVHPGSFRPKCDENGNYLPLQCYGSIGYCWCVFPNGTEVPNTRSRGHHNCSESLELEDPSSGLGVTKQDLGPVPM
Assay: cell-based or functional assay
Values of Emax, GILZ mRNA, SUDHL-6 cells greater than or equal to 6 map to met; values below map to not met.

ADC 12-5 (anti-hCD74 (LL1) conjugated to Linker 2-7) (antibody, human IgG1, kappa, V domains shown, position 121 is para-azido phenylalanine (pAzF), conjugated to dexamethasone drug-linker 2-7) VH: QVQLQQSGSELKKPGASVKVSCKASGYTFTNYGVNWIKQAPGQGLQWMGWINPNTGEPTFDDDFKGRFAFSLDTSVSTAYLQISSLKADDTAVYFCSRSRGKNEAWFAYWGQGSLVTVSS VL: DIQLTQSPLSLPVTLGQPASISCRSSQSLVHRNGNTYLHWFQQRPGQSPRLLIYTVSNRFSGVPDRFSGSGSGTDFTLKISRVEAEDVGVYFCSQSSHVPPTFGAGTRLEIKR : not met
ADC 12-4 (anti-hCD74 (LL1) conjugated to Linker 1-4) (antibody, human IgG1, kappa, V domains shown, position 121 is para-azido phenylalanine (pAzF), conjugated to dexamethasone drug-linker 1-4) VH: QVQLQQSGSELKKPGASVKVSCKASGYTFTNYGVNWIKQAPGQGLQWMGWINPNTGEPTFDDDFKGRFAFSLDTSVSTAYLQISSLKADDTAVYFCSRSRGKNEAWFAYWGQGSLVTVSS VL: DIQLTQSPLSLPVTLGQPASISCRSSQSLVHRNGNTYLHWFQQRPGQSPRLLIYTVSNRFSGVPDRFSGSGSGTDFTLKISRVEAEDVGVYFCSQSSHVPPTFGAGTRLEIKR : not met
ADC 12-7 (anti-hCD74 (LL1) conjugated to Linker 4-3) (antibody, human IgG1, kappa, V domains shown, position 121 is para-azido phenylalanine (pAzF), conjugated to dexamethasone drug-linker 4-3) VH: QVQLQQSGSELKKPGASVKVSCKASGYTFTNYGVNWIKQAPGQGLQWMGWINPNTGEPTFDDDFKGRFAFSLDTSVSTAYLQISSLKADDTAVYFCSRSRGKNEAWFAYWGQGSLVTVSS VL: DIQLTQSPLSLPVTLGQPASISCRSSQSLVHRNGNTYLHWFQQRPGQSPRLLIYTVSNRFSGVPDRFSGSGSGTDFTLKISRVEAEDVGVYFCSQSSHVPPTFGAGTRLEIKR : not met
ADC 12-9 (anti-hCD74 (LL1) conjugated to Linker 6-2) (antibody, human IgG1, kappa, V domains shown, position 121 is para-azido phenylalanine (pAzF), conjugated to dexamethasone drug-linker 6-2) VH: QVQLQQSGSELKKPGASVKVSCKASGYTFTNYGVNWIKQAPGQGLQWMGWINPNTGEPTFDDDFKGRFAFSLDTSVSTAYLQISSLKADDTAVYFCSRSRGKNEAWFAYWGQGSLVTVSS VL: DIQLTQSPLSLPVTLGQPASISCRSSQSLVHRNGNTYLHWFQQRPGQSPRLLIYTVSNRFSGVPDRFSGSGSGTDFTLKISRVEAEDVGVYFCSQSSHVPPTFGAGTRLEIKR : met
ADC 12-6 (anti-hCD74 (LL1) conjugated to Linker 3-4) (antibody, human IgG1, kappa, V domains shown, position 121 is para-azido phenylalanine (pAzF), conjugated to dexamethasone drug-linker 3-4) VH: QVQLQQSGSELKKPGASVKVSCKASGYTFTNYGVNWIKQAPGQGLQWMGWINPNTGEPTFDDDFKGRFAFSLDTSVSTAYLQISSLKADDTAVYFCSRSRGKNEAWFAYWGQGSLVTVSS VL: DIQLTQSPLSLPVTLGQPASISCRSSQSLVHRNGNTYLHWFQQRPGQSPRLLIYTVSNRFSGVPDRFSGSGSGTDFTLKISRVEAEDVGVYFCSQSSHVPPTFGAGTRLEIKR : not met
